Biological target: UniProt P21730
Sequence (P21730 1-350): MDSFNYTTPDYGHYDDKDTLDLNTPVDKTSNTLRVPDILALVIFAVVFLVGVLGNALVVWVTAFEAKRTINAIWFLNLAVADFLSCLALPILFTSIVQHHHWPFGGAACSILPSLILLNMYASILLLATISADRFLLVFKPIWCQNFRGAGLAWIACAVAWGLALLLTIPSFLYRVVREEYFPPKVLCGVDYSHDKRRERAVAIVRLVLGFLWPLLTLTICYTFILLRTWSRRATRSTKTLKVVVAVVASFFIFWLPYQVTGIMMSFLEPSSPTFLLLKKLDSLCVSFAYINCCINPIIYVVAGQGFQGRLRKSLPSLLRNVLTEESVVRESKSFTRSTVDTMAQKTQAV
Experiment: hC5a DISCO IC50 assay (PathHunter beta-arrestin, antagonist mode)
Conditions: CHO-K1 C5AR1 beta-arrestin cell line; antagonist vs 1-10 nM C5a agonist; geometric mean values; read-out: C5aR IC50
Here the recorded log10 of IC50 is given for each entry.
MEASUREMENT TYPE: log10 of IC50 (log10 of the value in nM)

COc1cccc2c1n(Cc1csc(C(F)(F)F)n1)c(=O)n2[C@@H]1CCN(c2c(C)cccc2F)C1 | 2.54
COc1cccc2c1n(Cc1ccccc1C(F)(F)F)c(=O)n2C1CCN(C(=O)c2ccccc2)CC1 | 3.18
COc1nccnc1Cn1c(=O)n(C2CCN(c3c(C)cccc3F)CC2)c2cccc(OC)c21 | 1.65
COc1cccc2c1n(Cc1ccccc1C(F)(F)F)c(=O)n2C1CCN(c2c(C)ccnc2F)CC1 | 1.45
COc1cccc2c1n(Cc1ccccc1C(F)(F)F)c(=O)n2C1CCN(c2c(C)ccnc2C)CC1 | 1.95
COc1cccc2c1n(Cc1nccnc1C(F)(F)F)c(=O)n2C1CCN(c2c(F)cccc2C#N)CC1 | 2.36
COc1cccc2c1n(Cc1ccccc1C(F)(F)F)c(=O)n2C1CCN(C(=O)OC(C)(C)C)CC1F (centres unmarked) | 3.36
COc1cccc2c1n(Cc1ccccc1OC1CCC1)c(=O)n2C1CCN(c2c(C)cccc2F)CC1 | 1.56

* * *

Reported pIC50 values for a set of molecules
biological target: C5AR1 (Homo sapiens, UniProt P21730); experiment: hC5a DISCO IC50 assay (PathHunter beta-arrestin, antagonist mode); conditions: CHO-K1 C5AR1 beta-arrestin cell line; antagonist vs 1-10 nM C5a agonist; geometric mean values; read-out: C5aR IC50
pIC50: −log10 of the molar value.
MEASUREMENT TYPE: pIC50

COc1cccc2c1n(Cc1nccnc1C(F)(F)F)c(=O)n2C1CCN(c2c(C)cccc2F)CC1 | 8.00
COc1cccc2c1n(Cc1cncnc1C(C)C)c(=O)n2C1CCN(c2c(C)cccc2F)CC1 | 7.38
COc1cccc2c1n(Cc1ccccc1C(F)(F)F)c(=O)n2C1CCN(c2c(C)cccc2F)CC1C (stereo not drawn) | 7.70
COc1cccc2c1n(Cc1ccccc1C(F)(F)F)c(=O)n2C1CCN(c2ccccc2OC2CCOCC2)CC1 | 7.09
COc1cc(Cl)nnc1Cn1c(=O)n([C@@H]2CCN(c3c(C)cccc3F)C2)c2cccc(OC)c21 | 5.69
COc1cccc2c1n(Cc1ccccc1C(F)(F)F)c(=O)n2[C@@H]1CCN(c2c(F)cccc2C#CCN2CCOCC2)C1 | 7.14
COc1cccc2c1n(Cc1ccccc1C(F)(F)F)c(=O)n2[C@@H]1CCN(c2c(F)cccc2C=O)C1 | 7.64
COc1cccc2c1n(Cc1ccccc1C(F)(F)F)c(=O)n2[C@@H]1CCN(c2c(F)cccc2Br)C1 | 7.68
COc1ccccc1N1CC[C@@H](n2c(=O)n(Cc3ccccc3C(F)(F)F)c3c(OC)cccc32)C1 | 7.72
CCN(CCO)Cc1cccc(F)c1N1CC[C@@H](n2c(=O)n(Cc3ccccc3C(F)(F)F)c3c(OC)cccc32)C1 | 5.99
COC(=O)N1CC[C@@H](n2c(=O)n(Cc3ccccc3C(F)(F)F)c3c(OC)cccc32)C1 | 6.34
COC(=O)N1CCC(n2c(=O)n(Cc3ccccc3C(F)(F)F)c3c(OC)cccc32)CC1 | 6.74
COc1cccc2c1n(Cc1ccccc1OC1CC1)c(=O)n2[C@@H]1CCN(c2c(C)cccc2F)C1 | 7.72
COc1cccc2c1n(Cc1nccnc1C(C)C)c(=O)n2[C@@H]1CCN(c2c(C)cccc2F)C1 | 7.89
COc1cccc2c1n(Cc1ccccc1C(F)(F)F)c(=O)n2C1CCN(Cc2ccc(Cl)cc2Cl)CC1 | 6.55

* * *

biological target: C5AR1 (Homo sapiens, UniProt P21730); assay: hC5a DISCO IC50 assay (PathHunter beta-arrestin, antagonist mode); conditions: CHO-K1 C5AR1 beta-arrestin cell line; antagonist vs 1-10 nM C5a agonist; geometric mean values; read-out: C5aR IC50
pIC50: −log10 of the molar value.
MEASUREMENT TYPE: pIC50

Cc1cccc(F)c1N1CC[C@@H](n2c(=O)n(Cc3ccccc3C(F)(F)F)c3c(OCCN(C)C)nccc32)C1 | 6.18
Cc1cccc(F)c1N1CC[C@@H](n2c(=O)n(Cc3ccccc3C(F)(F)F)c3c(OCCO)cccc32)C1 | 7.96
COc1cccc2c1n(Cc1ccncc1C(F)(F)F)c(=O)n2C1CCN(c2c(F)cccc2F)CC1 | 5.88
COc1cccc2c1n(Cc1ccccc1C(F)(F)F)c(=O)n2[C@@H]1CCN(c2c(F)cncc2F)C1 | 7.57

* * *

Recorded IC50, one value per entry.
biological target: C5AR1 (Homo sapiens, UniProt P21730); construct: host or cells: CHO-K1; experiment: hC5a DISCO IC50 assay (PathHunter beta-arrestin, antagonist mode); format: cell-based; details: CHO-K1 C5AR1 beta-arrestin cell line; antagonist vs 1-10 nM C5a agonist; geometric mean values; read-out: C5aR IC50
MEASUREMENT TYPE: IC50 (nM)

COc1ccccc1Cn1c(=O)n([C@@H]2CCN(C(=O)OC(C)(C)C)C2)c2cccc(OC)c21 | 396
COc1cccc2c1n(Cc1ccccc1C(F)(F)F)c(=O)n2[C@@H]1CCN(C)C1 | 3450
COc1cccc2c1n(Cc1ccccc1C(F)(F)F)c(=O)n2[C@@H]1CCN(c2c(F)cccc2CN2CCC(N(C)C)CC2)C1 | 1590
Cc1cccc(F)c1N1CC[C@@H](n2c(=O)n(Cc3ccccc3C(F)(F)F)c3c(OCC(O)CO)nccc32)C1 (stereo partly drawn) | 207
CCCCOc1ccccc1N1CCC(n2c(=O)n(Cc3ccccc3C(F)(F)F)c3c(OC)cccc32)CC1 | 61
Cc1cccc(F)c1N1CC[C@@H](n2c(=O)n(Cc3ccccc3C(F)(F)F)c3c(OCC(O)CO)cccc32)C1 (stereo partly drawn) | 38
COc1cccc2c1n(Cc1nccnc1OC(C)C)c(=O)n2C1CCN(c2c(C)cccc2F)CC1 | 49
Cc1cccc(C)c1N1CC[C@@H](n2c(=O)n(Cc3ccccc3C(F)(F)F)c3c(NCCO)nccc32)C1 | 201
COc1cccc2c1n(Cc1ccccc1C(F)(F)F)c(=O)n2[C@@H]1CCN(c2c(F)cccc2CN2CCNCC2)C1 | 5760
COc1ncncc1Cn1c(=O)n(C2CCN(c3c(F)cccc3C#N)CC2)c2cccc(OC)c21 | 2240
COc1cccc(C)c1N1CC[C@@H](n2c(=O)n(Cc3ccccc3C(F)(F)F)c3c(=O)[nH]ccc32)C1 | 313
COc1cccc2c1n(Cc1ccccc1OC(F)(F)F)c(=O)n2[C@@H]1CCN(c2c(F)cccc2F)C1 | 8
COc1cccc2c1n(Cc1ccccc1OC(C)C)c(=O)n2C1CCN(c2c(C)cccc2F)CC1 | 17
COc1cccc2c1n(Cc1ccccc1C(F)(F)F)c(=O)n2C1CCN(c2c(C)ccnc2C#N)CC1 | 39
COc1nccnc1Cn1c(=O)n([C@@H]2CCN(c3c(C)cccc3F)C2)c2cccc(OC)c21 | 17

* * *

target: C5AR1 (Homo sapiens, UniProt P21730); test: hC5a DISCO IC50 assay (PathHunter beta-arrestin, antagonist mode); conditions: CHO-K1 C5AR1 beta-arrestin cell line; antagonist vs 1-10 nM C5a agonist; geometric mean values; read-out: C5aR IC50
pIC50: −log10 of the molar value.
Classification field: enter true (1) for pIC50 values not below 7, false (0) for values below it.

Cc1cccc(F)c1N1CC[C@@H](n2c(=O)n(Cc3ccccc3C(F)(F)F)c3c(N(C)CCO)nccc32)C1 | true (1)
COc1cccc2c1n(Cc1nccnc1C(C)C)c(=O)n2C1CCN(c2c(C)cccc2F)CC1 | true (1)
COc1cccc2c1n(Cc1ccccc1C(F)(F)F)c(=O)n2[C@@H]1CCN(c2c(F)cccc2CC=O)C1 | true (1)
Cc1cccc(F)c1N1CC[C@@H](n2c(=O)n(Cc3ccccc3C(F)(F)F)c3c(OC4CCN(C(=O)OC(C)(C)C)CC4)nccc32)C1 | false (0)
COc1cccc2c1n(Cc1ccccc1C(F)(F)F)c(=O)n2C1CCN(c2c(C=O)c(C3CC3)nn2C)CC1 | false (0)
COc1cccc2c1n(Cc1nnc(Cl)cc1OC(C)C)c(=O)n2[C@@H]1CCN(c2c(C)cccc2F)C1 | false (0)
COc1cccc2c1n(Cc1ccccc1C(F)(F)F)c(=O)n2[C@@H]1CCN(c2c(C)c(C)nn2C)C1 | false (0)
COc1cccc2c1n(Cc1ccccc1C(F)(F)F)c(=O)n2[C@@H]1CCN(c2c(F)cccc2CN2CCCC2)C1 | false (0)
COc1cccc2c1n(Cc1cnccc1C(C)C)c(=O)n2C1CCN(c2c(C)cccc2F)CC1 | true (1)
COc1ccnc2c1n(Cc1ccccc1C(F)(F)F)c(=O)n2[C@@H]1CCN(c2c(C)cccc2C)C1 | true (1)
COc1cccc2c1n(Cc1ccccc1OCC1CC1)c(=O)n2C1CCN(c2c(C)cccc2F)CC1 | true (1)
COc1ccnc2c1n(Cc1ccccc1C(F)(F)F)c(=O)n2[C@@H]1CCN(C(=O)OC(C)(C)C)C1 | false (0)
COc1cccc2c1n(Cc1ccccc1C(F)(F)F)c(=O)n2[C@@H]1CCN(c2c(N)cccc2F)C1 | true (1)
COc1cccc2c1n(Cc1ccccc1C(F)(F)F)c(=O)n2C1CCN(c2ccccc2OCC2CC2)CC1 | true (1)
COc1cncc2c1n(Cc1ccccc1C(F)(F)F)c(=O)n2C1CCN(c2c(C)cccc2F)CC1 | false (0)
Cc1cccc(F)c1N1CC[C@@H](n2c(=O)n(Cc3ccccc3C(F)(F)F)c3c(OCC4COC(C)(C)O4)cccc32)C1 (some centres unmarked) | true (1)
COc1cccc2c1n(Cc1ccccc1C(F)(F)F)c(=O)n2C1CCN(C(=O)OC(C)(C)C)C(C)C1 (centres unmarked) | false (0)
COc1nccc2c1n(Cc1ccccc1C(F)(F)F)c(=O)n2[C@@H]1CCN(C(=O)OC(C)(C)C)C1 | false (0)
COc1cccc2c1n(Cc1ccccc1C(F)(F)F)c(=O)n2[C@@H]1CCN(c2c(F)cccc2C(C)N2CC(OC)C2)C1 (some centres unmarked) | false (0)
COc1cccc2c1n(Cc1ccccc1C(F)(F)F)c(=O)n2[C@@H]1CCN(C(=O)OC2(C)COC2)C1 | false (0)
COc1cccc2c1n(Cc1ccccc1C(F)(F)F)c(=O)n2[C@@H]1CCN(c2c(C)ccnc2F)C1 | true (1)
COc1cccc(F)c1N1CC[C@@H](n2c(=O)n(Cc3ccccc3C(F)(F)F)c3c(=O)[nH]ccc32)C1 | false (0)
